assay details: Optical / fluorescence properties (absorption, emission, extinction coefficient, quantum yield, lifetime)
Assay type: physicochemical
test conditions: in dichloromethane
Please mark 1 (yes) if the recorded Φ is equal to or greater than 70%, and 0 (no) if it falls below.

compound	answer label
CCOC(=O)c1ccc(C2=C3C(C)=C(CC)C(C)=[N+]3[B-](C#CCOCCOC)(C#CCOCCOC)n3c(C)c(CC)c(C)c32)cc1 [Ia-6]	1 (yes)
COCCOCC#C[B-]1(C#CCOCCOC)n2c(C)cc(C)c2C(c2ccc(I)cc2)=C2C(C)=CC(C)=[N+]21 [Ia-1]	0 (no)
COCCOCC#C[B-]1(C#CCOCCOC)n2c(C)cc(C)c2C(c2ccc(C(=O)NCCN)cc2)=C2C(C)=CC(C)=[N+]21 [Ia-13]	0 (no)
COCCOCC#C[B-]1(C#CCOCCOC)n2c(/C=C/c3ccc(OCCOCCOC)cc3)cc(C)c2C(c2ccc(C(=O)O)cc2)=C2C(C)=CC(/C=C/c3ccc(OCCOCCOC)cc3)=[N+]21 [Ia-11]	1 (yes)
COCCOCC#C[B-]1(C#CCOCCOC)n2c(C)cc(C)c2C(c2ccc(C(=O)O)cc2)=C2C(C)=CC(C)=[N+]21 [Ia-9]	0 (no)
COCCOCC#C[B-]1(C#CCOCCOC)n2c(/C=C/c3ccc(OCCOCCOC)cc3)cc(C)c2C(c2ccc(I)cc2)=C2C(C)=CC(/C=C/c3ccc(OCCOCCOC)cc3)=[N+]21 [Ia-3]	1 (yes)
CCOC(=O)CNC(=O)c1ccc(C2=C3C(C)=CC(C)=[N+]3[B-](C#CCOCCOC)(C#CCOCCOC)n3c(C)cc(C)c32)cc1 [Ia-14]	1 (yes)
COCCOCC#C[B-]1(C#CCOCCOC)n2c(C)cc(C)c2C(c2ccc(C(=O)NCC(=O)O)cc2)=C2C(C)=CC(C)=[N+]21 [Ia-15]	0 (no)
CCC1=C(C)C2=C(c3ccc(I)cc3)c3c(C)c(CC)c(C)n3[B-](C#CCOCCOC)(C#CCOCCOC)[N+]2=C1C [Ia-2]	1 (yes)

====

assay details: Optical / fluorescence properties (absorption, emission, extinction coefficient, quantum yield, lifetime)
Type: physicochemical
test conditions: asterisk: in water and PBS buffer
Marks after values point to notes of the source that are not given here.
Collected λem values appear next to each entry.
measurement type: λem

>>> print(df.to_string())
                           molecular_string   result
0  COCCOCC#C[B-]1(C#CCOCCOC)n2c(C)cc(C)c2C(c2ccc(C(=O)NCC(=O)O)cc2)=C2C(C)=CC(C)=[N+]21  507* nm
1  COCCOCC#C[B-]1(C#CCOCCOC)n2c(C)cc(C)c2C(c2ccc(C(=O)O)cc2)=C2C(C)=CC(C)=[N+]21  506* nm
2  COCCOCC#C[B-]1(C#CCOCCOC)n2c(/C=C/c3ccc(OCCOCCOC)cc3)cc(C)c2C(c2ccc(C(=O)O)cc2)=C2C(C)=CC(C)=[N+]21  578* nm
3  CCC1=C(C)C2=C(c3ccc(I)cc3)c3c(C)c(CC)c(C)n3[B-](C#CC[N+](C)(C)CCCS(=O)(=O)[O-])(C#CC[N+](C)(C)CCCS(=O)(=O)[O-])[N+]2=C1C  530* nm
4  CCC1=C(C)C2=C(c3ccc(C(=O)O)cc3)c3c(C)c(CC)c(C)n3[B-](C#CCOCCOC)(C#CCOCCOC)[N+]2=C1C  530* nm
